# Assay explanation: qHTS assay to identify small molecule HDAC inhibitors - cell viability counter screen (AID 1259365); further: nearly all actives have a fitted effect of over 50% in size
# Applied conditions: HCT-116 viability, CellTiter-Glo ATP luminescence, 2 h; series mostly up to 92.4 µM
Calls of active or inactive are those of the source. The call rests on the fitted dose curve; in most records, active means well fitted cell-killing curve with a large enough effect in the repeat runs; inconclusive means weak or mixed curves, or effect the other way; inactive means flat fitted curve, though single readings scatter.
Endpoint name: outcome

INSERT INTO assay_data (compound, endpoint_name, result) VALUES
  ('O=C(NC(=O)c1ccccc1Cl)Nc1ccc(OC(F)(F)F)cc1', 'outcome', 'inactive'),
  ('C#CC1(O)CCCCC1', 'outcome', 'inactive'),
  ('CC(C)N(C(=O)SC/C(Cl)=C/Cl)C(C)C', 'outcome', 'inactive'),
  ('CCN(CC)C(=O)N[C@@H]1C=C2c3cccc4[nH]cc(c34)C[C@@H]2N(C)C1', 'outcome', 'inactive'),
  ('O=C(N[C@@H]1N=C(c2ccccc2F)c2cccc3c2N(CC3)C1=O)c1cc2ccccc2[nH]1', 'outcome', 'inactive'),
  ('O=S(=O)(O)F', 'outcome', 'inactive'),
  ('CC(C)[C@@H](Nc1ccc(C(F)(F)F)cc1Cl)C(=O)OC(C#N)c1cccc(Oc2ccccc2)c1 (some centres not stated)', 'outcome', 'inactive'),
  ('Cc1c([N+](=O)[O-])cc2c(c1[N+](=O)[O-])C(C)(C)CC2(C)C', 'outcome', 'inactive'),
  ('BrCCCBr', 'outcome', 'inactive'),
  ('Brc1ccc(Oc2ccc(Br)cc2Br)c(Br)c1', 'outcome', 'inactive'),
  ('COC(=O)c1ccccc1S(=O)(=O)NC(=O)Nc1nc(C)nc(OC)n1', 'outcome', 'inactive'),
  ('O=C(CCCCl)c1ccc(F)cc1', 'outcome', 'inactive');

###

# Target system: Bile acid receptor (Homo sapiens) (UniProt Q96RI1)
# Sequence (Q96RI1 whole entry, looked up): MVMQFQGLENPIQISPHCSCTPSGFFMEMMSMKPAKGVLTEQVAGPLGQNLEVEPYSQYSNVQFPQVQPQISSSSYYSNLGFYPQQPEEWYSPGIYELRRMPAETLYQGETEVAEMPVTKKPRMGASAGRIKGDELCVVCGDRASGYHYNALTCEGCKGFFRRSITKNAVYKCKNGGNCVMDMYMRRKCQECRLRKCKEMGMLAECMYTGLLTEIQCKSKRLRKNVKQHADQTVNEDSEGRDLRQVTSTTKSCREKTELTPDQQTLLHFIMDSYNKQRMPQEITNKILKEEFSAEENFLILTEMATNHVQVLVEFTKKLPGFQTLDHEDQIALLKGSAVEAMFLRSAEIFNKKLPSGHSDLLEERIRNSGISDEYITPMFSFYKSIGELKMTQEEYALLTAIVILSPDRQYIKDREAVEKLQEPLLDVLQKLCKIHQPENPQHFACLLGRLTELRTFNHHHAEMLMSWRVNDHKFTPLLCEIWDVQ
# Assay explanation: qHTS assay to identify small molecule agonists of the farnesoid-X-receptor (FXR) signaling pathway (AID 743220)
# Applied conditions: HEK293T FXR-UAS-bla, beta-lactamase FRET ratio, 16 h; series mostly up to 62.6 µM
Inconclusive results are not listed. Calls of active or inactive are those of the source. The call rests on the fitted dose curve; in most records, active means well fitted activation curve with a large enough effect in the signal ratio in the repeat runs (not every such curve was filed as active); inconclusive means weak or mixed curves, or effect the other way; inactive means flat fitted curve, though single readings scatter; the % refers to the signal ratio.
Endpoint name: outcome

INSERT INTO assay_data (molecule, target_system, result) VALUES
  ('CC[N+]1(CC)CCC(OC(=O)C(O)(c2ccccc2)c2ccccc2)C1 (configuration not stated)', 'Bile acid receptor (Homo sapiens) (UniProt Q96RI1)', 'inactive'),
  ('COC(=O)/C=C(\C)OP(=O)(OC)OC', 'Bile acid receptor (Homo sapiens) (UniProt Q96RI1)', 'inactive'),
  ('O=S(=O)(O)F', 'Bile acid receptor (Homo sapiens) (UniProt Q96RI1)', 'inactive'),
  ('O=C(Nc1ccc(F)cc1F)c1cccnc1Oc1cccc(C(F)(F)F)c1', 'Bile acid receptor (Homo sapiens) (UniProt Q96RI1)', 'inactive'),
  ('CC(C)C(Br)C(=O)NC(N)=O (configuration not stated)', 'Bile acid receptor (Homo sapiens) (UniProt Q96RI1)', 'inactive'),
  ('O=NN(CCO)CCO', 'Bile acid receptor (Homo sapiens) (UniProt Q96RI1)', 'inactive'),
  ('CCC(C)c1cccc(C(C)CC)c1O (configuration not stated)', 'Bile acid receptor (Homo sapiens) (UniProt Q96RI1)', 'inactive');

###

# Assay explanation: A CellTox Green Cytotoxicity Assay to monitor cytotoxicity in HEK293 cells - 24 hour (AID 1224875); further: nearly all actives have a fitted effect of over 45% in size
# Applied conditions: CellTox Green fluorescence; series mostly up to 76.8 µM
Records with an inconclusive call do not appear. Active and inactive are the calls of the source. Calls follow the shape of the dose curve; as a rule, active = well fitted activation curve with a large enough effect in the repeat runs; inconclusive = weak or mixed curves; inactive = flat fitted curve, though single readings scatter.
Outcomes: active, inactive

INSERT INTO assay_data (molecule, assigned_category) VALUES
  ('CCC(C)c1cccc(C(C)CC)c1O (stereo not drawn)', 'active'),
  ('O=NN(CCO)CCO', 'inactive'),
  ('CC(=O)O.CC(=O)O.CC(=O)O.CC(=O)O.CC(=O)O.CC(=O)O.CC(=O)O.O.O.[Cr].[Cr].[Cr]', 'inactive'),
  ('CCOP(=O)(OCC)Oc1nc(Cl)c(Cl)cc1Cl', 'inactive'),
  ('c1ccc(N=NNc2ccccc2)cc1', 'active'),
  ('N#CSCc1ccccc1', 'inactive'),
  ('CC(C)c1c(CN(C)C(C)Cc2ccccc2)n(C)n(-c2ccccc2)c1=O (stereo not drawn)', 'inactive'),
  ('COc1ccc2[nH]cc(CCN(C(C)C)C(C)C)c2c1', 'inactive'),
  ('O=C(O)CCCCCCNC1c2ccccc2CCc2ccccc21', 'inactive'),
  ('FC(F)C(F)(F)OCC(Cn1cncn1)c1ccc(Cl)cc1Cl (stereo not drawn)', 'inactive'),
  ('S=C=NCCc1ccccc1', 'active'),
  ('CN1C2CCC(C)(C)C1CC(OC(=O)C(O)(c1cccs1)c1cccs1)C2 (stereo not drawn)', 'inactive'),
  ('CC(=O)[O-].CC(=O)[O-].O.O.O.[Pb+2]', 'inactive'),
  ('C=CC(=C)C', 'inactive'),
  ('[O]=[Cr](=[O])([OH])[O][Cr](=[O])(=[O])[OH]', 'inactive'),
  ('CCCCCON=O', 'inactive'),
  ('CCCCn1cc[n+](C)c1.[Cl][Fe-]([Cl])([Cl])[Cl]', 'inactive'),
  ('CC[N+]1(CC)CCC(OC(=O)C(O)(c2ccccc2)c2ccccc2)C1 (stereo not drawn)', 'inactive');

###

# Assay explanation: qHTS RealTime-Glo MT Cell Viability Assay in HepG2 cells - 32 hour (AID 1224877); further: nearly all actives have a fitted effect of over 55% in size
# Applied conditions: RealTime-Glo luminescence; series mostly up to 76.8 µM
Inconclusive results are not listed. Activity calls are given as the source filed them. Calls follow the shape of the dose curve; as a rule, active = well fitted cell-killing curve with a large enough effect in the repeat runs; inconclusive = weak or mixed curves; inactive = flat fitted curve, though single readings scatter.
Outcomes: T for active, F for inactive

INSERT INTO measurements (molecule, assigned_category) VALUES
  ('CNC(=O)O/N=C(\C)C(C)S(C)(=O)=O (stereo unspecified)', 'F'),
  ('CN1CCc2cc3c(cc2C1O)OCO3 (stereo unspecified)', 'F'),
  ('Cc1cccc(Cc2cnc[nH]2)c1C', 'F'),
  ('CC(Cl)CCl (stereo unspecified)', 'F'),
  ('CCOP(=S)(OCC)SC(CCl)N1C(=O)c2ccccc2C1=O (stereo unspecified)', 'F'),
  ('Brc1cccc(-c2ccccc2)c1', 'F'),
  ('ClC1=C(Cl)[C@]2(Cl)[C@@H]3[C@H]4C[C@H]([C@@H]5O[C@H]45)[C@@H]3[C@@]1(Cl)C2(Cl)Cl', 'F'),
  ('O=C1C[C@@H]2OCC=C3CN4CC[C@]56c7ccccc7N1[C@H]5[C@H]2[C@H]3C[C@H]46', 'F'),
  ('CN1[C@@H]2CC[C@H]1CC(O)C2 (stereo partly specified)', 'F'),
  ('Clc1ccc(C2(Cn3cncn3)OCCO2)c(Cl)c1', 'F'),
  ('CC(C)[C@@H](Nc1ccc(C(F)(F)F)cc1Cl)C(=O)OC(C#N)c1cccc(Oc2ccccc2)c1 (stereo partly specified)', 'F'),
  ('CCCCc1ccccc1', 'F'),
  ('Nc1ccc(N=Nc2ccccc2)cc1', 'F'),
  ('C#CC1(O)CCCCC1', 'F'),
  ('O=C(CCCCl)c1ccc(F)cc1', 'F'),
  ('S=C=Nc1ccccc1', 'F'),
  ('C[C@]12C/C(=C/O)C(=O)C[C@@H]1CC[C@@H]1[C@@H]2CC[C@@]2(C)[C@H]1CC[C@]2(C)O', 'F'),
  ('O=[N+]([O-])c1cc(C(F)(F)F)c(Cl)c([N+](=O)[O-])c1Nc1ncc(C(F)(F)F)cc1Cl', 'T'),
  ('Oc1ccc2[nH]cc(CCCCN3CC=C(c4ccccc4)CC3)c2c1', 'F'),
  ('CC(Cc1ccc(O)cc1)NCC(O)c1cc(O)cc(O)c1 (stereo unspecified)', 'F'),
  ('COP(=S)(OC)Oc1nc(Cl)c(Cl)cc1Cl', 'F'),
  ('CCC(OC(C)=O)C(CC(C)NC)(c1ccccc1)c1ccccc1 (stereo unspecified)', 'T'),
  ('CC(Cc1ccc2c(c1)OCO2)NO (stereo unspecified)', 'F'),
  ('CO/N=C(\C(=O)OC)c1ccccc1CO/N=C(\C)c1cccc(C(F)(F)F)c1', 'F'),
  ('O=Cc1ccccc1', 'F'),
  ('C=CCOC(=O)c1ccccc1N', 'F');

###

# Assay explanation: qHTS assay to identify small molecule antagonists of the peroxisome proliferator-activated receptor gamma (PPARg) signaling pathway - cell viability counter screen (AID 743194); further: nearly all actives have a fitted effect of over 55% in size
# Applied conditions: PPARg-bla HEK293H viability, CellTiter-Glo luminescence, 17 h; co-treated with 50 nM rosiglitazone unless noted; series mostly up to 62.6 µM
Results filed as inconclusive are left out. Active and inactive are the calls of the source. The call rests on the fitted dose curve; in most records, active means well fitted cell-killing curve with a large enough effect in the repeat runs; inconclusive means weak or mixed curves, or effect the other way; inactive means no such curve, though single readings can be large or run the other way.
Outcomes: active, inactive

INSERT INTO measurements (molecule, assigned_category) VALUES
  ('O.O.O.O=C([O-])[C@H]([O-])[C@@H]([O-])C(=O)[O-].O=C([O-])[C@H]([O-])[C@@H]([O-])C(=O)[O-].[K+].[K+].[Sb+3].[Sb+3]', 'inactive'),
  ('N#Cc1c2ccccc2cc2ccccc12', 'inactive'),
  ('[Cl-].[Cl-].[Sn+2]', 'inactive'),
  ('CCC(C)Br (configuration not stated)', 'inactive'),
  ('N#CSCc1ccccc1', 'inactive'),
  ('CCCC[N+]1(C)CCCC1 (tested in a mixture with another compound)', 'inactive'),
  ('CNC(=O)O/N=C(\C)C(C)S(C)(=O)=O (configuration not stated)', 'inactive'),
  ('CCN(CC)C(=O)N[C@@H]1C=C2c3cccc4[nH]cc(c34)C[C@@H]2N(C)C1', 'inactive'),
  ('CN(C)CCc1c[nH]c2ccccc12', 'inactive'),
  ('CC(C)Br', 'inactive'),
  ('CC(Cl)CCl (configuration not stated)', 'inactive'),
  ('Oc1ccc([C@H]2CNCc3c2ccc(O)c3O)cc1O', 'inactive'),
  ('CN1C2CCC(C)(C)C1CC(OC(=O)C(O)(c1cccs1)c1cccs1)C2 (configuration not stated)', 'inactive'),
  ('C[N+]1(C)[C@@H]2CC[C@H]1CC(OC(=O)C(CO)c1ccccc1)C2 (some centres not stated)', 'inactive'),
  ('ClC1=C(Cl)[C@]2(Cl)[C@H]3[C@H]([C@@H]4C=C[C@H]3C4)[C@@]1(Cl)C2(Cl)Cl', 'active'),
  ('Nc1nc(N)c(N)c(N)n1', 'inactive'),
  ('NC(=O)C(Cl)Cl', 'inactive'),
  ('O=C1C[C@@H]2OCC=C3CN4CC[C@]56c7ccccc7N1[C@H]5[C@H]2[C@H]3C[C@H]46', 'inactive'),
  ('CSC(C)(C)/C=N/O', 'inactive'),
  ('Brc1cccc(-c2ccccc2)c1', 'inactive'),
  ('CC(Cc1ccc2c(c1)OCO2)NO (configuration not stated)', 'inactive'),
  ('COC(=O)C(C)N(C(=O)c1ccco1)c1c(C)cccc1C (configuration not stated)', 'inactive'),
  ('CO/N=C(/C1=NOCCO1)c1ccccc1Oc1ncnc(Oc2ccccc2Cl)c1F', 'inactive'),
  ('CC(O)C(=O)[O][Hg][c]1ccccc1 (configuration not stated)', 'active'),
  ('O=C1C2(Cl)C3(Cl)C4(Cl)C(Cl)(Cl)C5(Cl)C3(Cl)C1(Cl)C5(Cl)C24Cl (configuration not stated)', 'active'),
  ('CNN', 'inactive'),
  ('N#Cc1ccc(N(CC(N)=O)CC(F)(F)F)cc1C(F)(F)F', 'inactive');
